- Test system: KM12 colon
- PROTOCOL_DESCRIPTION: NCI tumour cell line growth inhibition, 48 h
EXPERIMENTAL_READOUT: TGI

{"columns": ["MOLECULE", "EXPERIMENTAL_READOUT", "OBSERVED"],
 "data": [
  ["Cc1ccc(N=Nc2c(O)c(C(=O)Nc3ccccc3)cc3ccccc23)c([N+](=O)[O-])c1", "TGI", "> 100 µM"],
  ["Cc1ccc(S(=O)(=O)NCCSCCSCCNS(=O)(=O)c2ccc(C)cc2)cc1", "TGI", "> 100 µM"],
  ["COc1cccc(NC(=O)C(C#N)=C(SC)SC)c1", "TGI", "> 100 µM"],
  ["CNS(=O)(=O)NNS(=O)(=O)c1ccc(Cl)cc1", "TGI", "> 100 µM"]
]}

Next molecule, please.
The recorded TGI for `Cc1ccc2nc(NC(=O)/C(Cc3nc4ccc(Cl)cc4[nH]c3=O)=N\NC(C)(C)C)sc2c1` is > 100 µM

====

In this section, each of the molecules is paired with its reported TGI.
- System: UACC-62 melanoma
- PROTOCOL_DESCRIPTION: NCI tumour cell line growth inhibition, 48 h
Form entry: value (nM) — number only.

Example results:
{"columns": ["MOLECULE", "TGI, nM"],
 "data": [
  ["N#CN1CC[C@H](C(=O)Nc2ncc(-c3ccncc3)s2)C1", 1320],
  ["COc1ccc(/C=C2\\CN(C)C/C(=C\\c3ccc(OC)c(OC)c3OC)C2=O)c(OC)c1OC", 548]
]}

Next molecule, please.
The value of TGI recorded for CCC1(O)C(=O)OCc2c1cc1n(c2=O)Cc2cc3cc(N)ccc3nc2-1 (stereo not given) when tested on UACC-62 melanoma reads 251

====

- Tested on: EKVX NSCLC
- PROTOCOL_DESCRIPTION: NCI tumour cell line growth inhibition, 48 h
EXPERIMENTAL_READOUT: GI50

Example results:
{"columns": ["COMPOUND", "OBSERVED"],
 "data": [
  ["O=C1NC(=O)C(c2cccc(Cl)c2)=C1Nc1ccc(O)c(Cl)c1", "10.6 µM"],
  ["CCCCn1c(=O)c2c(nc3n2CCCN3CCc2ccc(OCC(=O)NCCN(CC)CC)cc2)n(CCCC)c1=O", "5.2 µM"],
  ["CC1OC(O[C@H]2/C=C/C=C/C=C/C=C/C=C/C=C/C=C/[C@H](C)[C@@H](O)[C@@H](C)[C@H](C)OC(=O)CC(O)CC(O)CCC(O)C(O)CC(O)C[C@]3(O)C[C@H](O)C(C(=O)O)C(C2)O3)C(O)[C@H](N)C1O (some centres not stated)", "3.4 µM"],
  ["CC(C)(C)c1ccc(C(=O)Nc2sc3c(c2C(N)=O)CCC(=O)C3)cc1", "1.97 µM"],
  ["O=C(Oc1cccnc1)c1ccsc1Nc1ccnc(C(F)(F)F)c1", "34.2 µM"]
]}

The value of GI50 recorded for `O=C([CH-]C(=O)c1ccccc1)c1ccccc1.O=C([CH-]C(=O)c1ccccc1)c1ccccc1.[OH-].[OH-].[Ti+4]` when tested on EKVX NSCLC reads 94.9 µM

The value of GI50 recorded for `CCCCCn1sc(=O)n(Cc2ccc(CNC(=O)OCc3ccc4cccc(O)c4n3)cc2)c1=O` when tested on EKVX NSCLC reads 2.01 µM

The value of GI50 recorded for `C[CH2][Pb]([CH2]C)([CH2]C)[O]C(=O)c1ccc2ccccc2n1` when tested on EKVX NSCLC reads > 10 µM

The value of GI50 recorded for `Cc1nc2ccccc2c(/C=C/c2ccc(Br)cc2)c1C(=O)/C=C/c1ccccc1` when tested on EKVX NSCLC reads 1.75 µM

====

- Test system: SK-MEL-5 melanoma
- PROTOCOL_DESCRIPTION: NCI tumour cell line growth inhibition, 48 h
EXPERIMENTAL_READOUT: TGI (µM)
Form entry: value (µM) — number only.

The recorded TGI for `Cc1cc(NCCCCCCCNc2cc(C)nc3cc([N+](=O)[O-])ccc23)c2ccc([N+](=O)[O-])cc2n1` is 29.9

The recorded TGI for `N#Cc1ccc(N=Cc2c([O-])ccc3ccccc23)cc1.[C-]#[O+].[C-]#[O+].[Ir]` is 26.2

The recorded TGI for `Cc1nc(-c2ccc(N=Cc3ccc(N(CCOS(C)(=O)=O)CCOS(C)(=O)=O)cc3C)cc2)cs1` is 38.5

The recorded TGI for CCN1C(=O)N(CC)C2C1NN=c1s/c(=C\c3ccccc3Br)c(=O)n12 (centres undefined) is 0.133

The recorded TGI for Fc1cccc(C2SCc3nc4ccccc4n32)c1F (centres undefined) is 53.2

The recorded TGI for `CN(CCCNC(=O)c1nn(-c2ccc(Cl)cc2Cl)c2c1Cc1ccccc1-2)CCCNC(=O)c1nn(-c2ccc(Cl)cc2Cl)c2c1Cc1ccccc1-2` is 3.05

====

- Test system: A549 NSCLC
- PROTOCOL_DESCRIPTION: NCI tumour cell line growth inhibition, 48 h
EXPERIMENTAL_READOUT: TGI

Example results:
{"columns": ["COMPOUND", "TGI"],
 "data": [
  ["COc1cc(C(c2ccc3c(c2)OCO3)N2C(=O)CCC2C(=O)O)cc(OC)c1OC (stereo unspecified)", "> 100 µM"],
  ["O=C(CSC1=NCCN1)Nc1ccccc1", "> 100 µM"]
]}

The value of TGI recorded for `O=[N+]([O-])c1cc(S(=O)(=O)Oc2ccccc2)ccc1Cl` when tested on A549 NSCLC reads 14.5 µM

====

- Tested on: HCT-15 colon
- PROTOCOL_DESCRIPTION: NCI tumour cell line growth inhibition, 48 h
EXPERIMENTAL_READOUT: TGI

Example results:
{"columns": ["COMPOUND", "SYSTEM_UNDER_TEST", "TGI"],
 "data": [
  ["Cc1ccc(/C=C2\\CCCC(CN3CCCCC3)C2=O)cc1 (configuration not stated)", "HCT-15 colon", "4.3 µM"],
  ["CCCCCCCCCCCCCP(=O)(O)NCC(N)=O", "HCT-15 colon", "> 100 µM"],
  ["CCC(c1c[nH]c2ccc(Br)cc12)c1c[nH]c2ccc(Br)cc12", "HCT-15 colon", "15 µM"],
  ["COc1cc2c(cc1OC)C1(c3ccc(Cl)cc3)ON=C(c3ccccc3)N1CS2 (configuration not stated)", "HCT-15 colon", "> 100 µM"],
  ["COc1cc([C@@H]2c3cc(O)c(OC)cc3C=C(C(N)=O)[C@H]2C(N)=O)ccc1O", "HCT-15 colon", "> 100 µM"]
]}

The value of TGI recorded for `CCN(CC)CCNCc1cc(Cl)cc2c1OCOC2` when tested on HCT-15 colon reads > 10 µM

The value of TGI recorded for Cc1ccc(S(=O)OC2C3CC4CC(C3)CC2C4)cc1 (configuration not stated) when tested on HCT-15 colon reads > 100 µM

The value of TGI recorded for `Cc1ccc2nc(NC(=O)/C(Cc3nc4ccc(Cl)cc4[nH]c3=O)=N\NC(C)(C)C)sc2c1` when tested on HCT-15 colon reads > 100 µM

The value of TGI recorded for `Cc1ccc2c(=O)cc(-c3ccc(-c4ccccc4)s3)[nH]c2n1` when tested on HCT-15 colon reads > 100 µM

The value of TGI recorded for `Cc1cc(N(CCC#N)CCC#N)ccc1/C=C1N=C(/C=C\c2ccccc2)N(c2ccc(Cl)cc2)C\1=O` when tested on HCT-15 colon reads > 100 µM

The value of TGI recorded for `COc1ccc(/C=N/NC(=O)Cn2c(-c3ccc(S(C)(=O)=O)cc3)nc3cc(Cl)ccc32)cc1` when tested on HCT-15 colon reads > 50 µM

====

- Tested on: ACHN renal
- PROTOCOL_DESCRIPTION: NCI tumour cell line growth inhibition, 48 h
EXPERIMENTAL_READOUT: TGI

Example results:
{"columns": ["COMPOUND", "SYSTEM_UNDER_TEST", "TGI"],
 "data": [
  ["CC(=O)OCC1OC(n2c(=O)[nH]c(=O)c3sccc32)C(Br)C1OC(C)=O (stereo unspecified)", "ACHN renal", "> 100 µM"],
  ["O=C(NC1CCCC1=O)c1ccccc1 (stereo unspecified)", "ACHN renal", "> 100 µM"],
  ["Cc1c(C2=C(c3cn(C)c4ccccc34)C(=O)NC2=O)c2ccccc2n1C", "ACHN renal", "> 25 µM"],
  ["CC(C)(C)OC(=O)NCCC1CN(C(=O)c2ccccc2)c2ccccc21 (stereo unspecified)", "ACHN renal", "> 100 µM"],
  ["CCO/C=C1\\N=C(c2ccccc2Br)OC1=O", "ACHN renal", "> 100 µM"],
  ["Cc1nc2ccccc2c(/C=C/c2ccc(Br)cc2)c1C(=O)/C=C/c1ccccc1", "ACHN renal", "3.02 µM"],
  ["O=C(Oc1cccnc1)c1ccsc1Nc1ccnc(C(F)(F)F)c1", "ACHN renal", "95.8 µM"],
  ["COc1cc2c(cc1OC)C1(c3ccc(Cl)cc3)ON=C(c3ccccc3)N1CS2 (stereo unspecified)", "ACHN renal", "> 100 µM"],
  ["Cc1cc(N(CCC#N)CCC#N)ccc1/C=C1/N=C(c2ccccc2)N(N)C1=O", "ACHN renal", "> 100 µM"],
  ["O=C(O)/C(Cl)=C(\\Cl)C(=O)Nc1ccc(Cl)c(Cl)c1Cl", "ACHN renal", "32 µM"]
]}

The recorded TGI for `O=C(O)COc1c(Cl)cc(Cl)c2cccnc12` is > 100 µM

The recorded TGI for `N#C/C(=C\c1c[nH]c2ccccc12)C(=O)c1ccc(O)c(O)c1` is > 94.3 µM

The recorded TGI for `COc1ccc(C(=O)c2[nH]c(Nc3ccc(Cl)cc3)c(C(=S)Nc3ccccc3)c2N)cc1` is > 100 µM

The recorded TGI for COc1ccc2c(c1)CCN1CCc3cc(OC)c(OC)cc3CC21 (stereo unspecified) is > 100 µM

Source listed as PubChem BioAssay (NCI).
